Cited source: paper PMC6499816

# Kd per record follows
# assay-system: GABARAPL1 (Homo sapiens, UniProt Q9H0R8)
# Construct: insertion of full-length human GABARAP, GABARAP-L1, LC3A, and LC3C, and EcoRI and NotI restrictions sites for cloning of LC3B and GABARAP-L2; GST (followed by 3C protease site) (N); made in house; host or cells: bacteria (E. coli BL21 (DE3) pLysS is stated for the GST-ATG8 proteins of the overlay assay)
# Sequence (Q9H0R8 whole entry): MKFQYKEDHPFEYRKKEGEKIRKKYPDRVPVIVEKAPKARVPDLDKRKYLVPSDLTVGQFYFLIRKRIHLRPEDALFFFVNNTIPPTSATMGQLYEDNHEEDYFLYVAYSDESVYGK
# assay-info: BLI, LIR peptide binding to GABARAPL1
# details: fit of response vs GABARAPL1 concentration (μM), n=2 independent experiments, read-out: Kd (best-fit value)
Ends that are not written are not given here.

chain-sequence	assay-system	Kd, µM
DSSCDTDDFVMVPA [ULK1 (aa 349-362)]	GABARAPL1 (Homo sapiens, UniProt Q9H0R8)	0.148
DSSCDTDDFVMV [ULK1 (aa 349-360)]	GABARAPL1 (Homo sapiens, UniProt Q9H0R8)	0.22
DDFVMVPAQFPGDLV [ULK1 (aa 355-369)]	GABARAPL1 (Homo sapiens, UniProt Q9H0R8)	0.243
DSSCDTDDFVMVPAQF [ULK1 (aa 349-364)]	GABARAPL1 (Homo sapiens, UniProt Q9H0R8)	0.161

* * *

Recorded pKd, one value per entry.
# assay-system: GABARAP (Homo sapiens, UniProt O95166)
# Construct: insertion of full-length human GABARAP, GABARAP-L1, LC3A, and LC3C, and EcoRI and NotI restrictions sites for cloning of LC3B and GABARAP-L2; GST (followed by 3C protease site) (N); made in house; host or cells: bacteria (E. coli BL21 (DE3) pLysS is stated for the GST-ATG8 proteins of the overlay assay)
# Sequence (O95166 whole entry): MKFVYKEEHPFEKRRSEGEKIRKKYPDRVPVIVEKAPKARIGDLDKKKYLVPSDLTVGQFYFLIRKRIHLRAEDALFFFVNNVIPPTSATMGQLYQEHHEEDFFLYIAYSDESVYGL
# assay-info: BLI, LIR peptide binding to GABARAP
# details: Fig. 4c, fit of response vs GABARAP concentration, n=2 independent experiments, read-out: Kd (best-fit value)
pKd: −log10 of the molar value. Ends that are not written are not given here.

chain-sequence	pKd
SQKSDEEDFVKVEDLALKLTI [PCM1 P1962A]	6.00
SQKSDEEDFDKVEDLPLKLTI [PCM1 V1956D]	5.11
YRPPDDAVFDIITDEELCQIQ [FYCO1 WT]	5.76
SQKSDEEDFVKIEDLPLKLTI [PCM1 V1959I]	5.84
SQKSDEEDFDIIEDLPLKLTI [PCM1 V1956D/ K1957I/ V1958I]	5.86

* * *

# assay-system: LC3A (Homo sapiens)
# Construct: insertion of full-length human GABARAP, GABARAP-L1, LC3A, and LC3C, and EcoRI and NotI restrictions sites for cloning of LC3B and GABARAP-L2; GST (followed by 3C protease site) (N); made in house; host or cells: bacteria (E. coli BL21 (DE3) pLysS is stated for the GST-ATG8 proteins of the overlay assay)
# assay-info: Bio-layer interferometry (BLI), LIR peptide binding to LC3A
# details: read-out: Kd (best-fit value)
# Description: For recombinant protein expression in bacteria, a modified plasmid of pGEX-6P2 (GE Healthcare) (referred to as pAL) containing an N-terminal […] followed by a 3C protease cleavage site was used. Expression was induced by the addition of 0.5 mM IPTG at OD600 = 0.6 and cells were incubated at 25 °C overnight or at 37 °C for 5 h. […]
Ends that are not written are not given here.
Each entry below carries its recorded Kd.
measure-name: Kd (µM)

chain-sequence	assay-system	measure-name	readout-number
DSSCDTDDFVMVPAQF [ULK1 (aa 349-364)]	LC3A (Homo sapiens)	Kd	8.37
DSSCDTDDFVMVPA [ULK1 (aa 349-362)]	LC3A (Homo sapiens)	Kd	9.23
SQKSDEEDFDIIEDLPLKLTI [PCM1 V1956D/ K1957I/ V1958I]	LC3A (Homo sapiens)	Kd	4.61
SQKSDEEDFVIVEDLPLKLTI [PCM1 K1967I]	LC3A (Homo sapiens)	Kd	3.93
DSSCDTDDFVMV [ULK1 (aa 349-360)]	LC3A (Homo sapiens)	Kd	2.92
YRPPDDAVFDIITDEELCQIQ [FYCO1 WT]	LC3A (Homo sapiens)	Kd	0.778
